The measured values listed here are drawn from ChEMBL document CHEMBL1201862.

Please provide measured GI50 for the entries that follow.
System: LOX IMVI
Test: NCI tumour cell line growth inhibition, 48 h
The source made the active and inactive calls. Rule as the data show it: active = GI50 up to about 1.1 µM and inactive = higher.

According to the records, this compound CCC(=O)OCc1ccc2oc(=O)c(C(=O)Oc3cncc(Cl)c3)cc2c1 displays GI50 of > 100 µM (inactive)

According to the records, this compound O=C(Nc1ccc(Cl)cc1C(F)(F)F)C(=O)Nn1c(S)nc2ccccc2c1=O displays GI50 of > 100 µM (inactive)

According to the records, this compound NC(=O)c1ncn2c(=O)n(CCCl)nnc12 [MITOZOLOMIDE] displays GI50 of 22.8 µM (inactive)

According to the records, this compound CC(=O)c1c2n(n(-c3ccccc3)c1=O)C(=O)c1nccnc1-2 displays GI50 of > 100 µM (inactive)

According to the records, this compound CCOC(=O)/C=C/c1ccccn1 displays GI50 of > 100 µM (inactive)

According to the records, this compound O=C1NC(=O)C(c2c[nH]c3cc(Br)ccc23)=C1c1cnc[nH]1 displays GI50 of 19.5 µM (inactive)

According to the records, this compound COC1=C2C[C@](OC)(C#CC=CC#CC2O)CC1(C)C (stereo partly specified) displays GI50 of > 100 µM (inactive)

According to the records, this compound CN(C)CCc1c2c(nc3ccccc13)C(=O)c1cccnc1C2=O displays GI50 of < 0.0476 µM (active)

According to the records, this compound CC1SC2=NC3=C(c4ccccc4C3=O)C(c3ccccc3Cl)N2C1=O (stereo unspecified) displays GI50 of > 100 µM (inactive)

According to the records, this compound Cc1ccc(-c2c(-c3ccccc3)[nH]c(C)c2C(=O)ONC(=O)c2ccccc2)cc1 displays GI50 of 1.75 µM (inactive)

According to the records, this compound O=c1c2ccccc2nc2n1C(c1ccc([N+](=O)[O-])cc1)C2(c1ccccc1)c1ccccc1 (stereo unspecified) displays GI50 of > 100 µM (inactive)
